// data source = patent US10508085B2

molecular target: human IDO (IDO1-expressing HEK293 cells) (Homo sapiens, UniProt P14902); construct: expressed in transfected cells; experiment: Cell based kynurenine assay, IDO1-expressing HEK293 cell clones; conditions: IDO1-expressing HEK293 cells, 24 hours incubation; geometric mean; read-out: HEK293 IDO1 Kynurenine GMean IC50 (μM) (Cellular Assay)
Sequence (P14902 whole entry): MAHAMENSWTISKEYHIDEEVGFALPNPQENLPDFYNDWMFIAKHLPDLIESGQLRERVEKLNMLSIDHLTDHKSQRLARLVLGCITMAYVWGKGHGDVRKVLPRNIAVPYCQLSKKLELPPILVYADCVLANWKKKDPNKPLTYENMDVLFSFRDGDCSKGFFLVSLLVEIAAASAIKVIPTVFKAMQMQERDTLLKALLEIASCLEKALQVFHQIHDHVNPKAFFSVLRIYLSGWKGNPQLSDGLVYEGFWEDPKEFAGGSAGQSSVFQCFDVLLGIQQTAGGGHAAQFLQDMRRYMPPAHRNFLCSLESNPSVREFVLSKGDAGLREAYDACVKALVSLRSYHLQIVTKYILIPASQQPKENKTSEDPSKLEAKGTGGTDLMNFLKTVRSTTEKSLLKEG

[
  {
    "Molecule": "CC(C)(C1CCN(C(=O)Nc2ccc(C#N)cc2)CC1)C(O)c1cc(Cl)cc2cn[nH]c12 (centres unmarked) [Compound P-0168]",
    "Subject Of Test": "human IDO (IDO1-expressing HEK293 cells) (Homo sapiens, UniProt P14902)",
    "IC50": "0.0001 to 10 µM"
  },
  {
    "Molecule": "OC1(c2cc(Cl)cc3cn[nH]c23)CC2(CCNCC2)C1 [Compound P-0020]",
    "Subject Of Test": "human IDO (IDO1-expressing HEK293 cells) (Homo sapiens, UniProt P14902)",
    "IC50": "> 10 µM"
  },
  {
    "Molecule": "CC(C)(C1CCN(S(C)(=O)=O)CC1)C(O)c1cc(Cl)cc2cn[nH]c12 (centres unmarked) [Compound P-0198]",
    "Subject Of Test": "human IDO (IDO1-expressing HEK293 cells) (Homo sapiens, UniProt P14902)",
    "IC50": "0.0001 to 10 µM"
  },
  {
    "Molecule": "CC(C)(C1CCN(C(=O)NS(=O)(=O)c2ccccc2)CC1)C(O)c1cc(Cl)cc2cn[nH]c12 (centres unmarked) [Compound P-0353]",
    "Subject Of Test": "human IDO (IDO1-expressing HEK293 cells) (Homo sapiens, UniProt P14902)",
    "IC50": "0.0001 to 10 µM"
  },
  {
    "Molecule": "OC(c1c2c(cc3cn[nH]c13)CC2)C1(C2CCOCC2)CC1 (centres unmarked) [Compound P-0277]",
    "Subject Of Test": "human IDO (IDO1-expressing HEK293 cells) (Homo sapiens, UniProt P14902)",
    "IC50": "0.0001 to 10 µM"
  }
]

* * *

Measured IC50 accompanies every entry in the list below.
molecular target: human IDO (IDO1-expressing HEK293 cells) (Homo sapiens, UniProt P14902); construct: expressed in transfected cells; test: Cell based kynurenine assay, IDO1-expressing HEK293 cell clones; settings: IDO1-expressing HEK293 cells, 24 hours incubation; geometric mean; read-out: HEK293 IDO1 Kynurenine GMean IC50 (μM) (Cellular Assay)

[
  {
    "Compound": "OC(c1cccc2cncn12)C12CC3CC(CC(C3)C1)C2 (stereo not drawn) [Compound P-0087]",
    "IC50": "0.0001 to 10 µM"
  },
  {
    "Compound": "CC(C)(C1CCOCC1)C(O)c1cc(Cl)cc2[nH]ncc12 (stereo not drawn) [Compound P-0174]",
    "IC50": "0.0001 to 10 µM"
  },
  {
    "Compound": "CC1(C(O)c2cc(Cl)cc3[nH]ncc23)CCCCC1 (stereo not drawn) [Compound P-0145]",
    "IC50": "> 10 µM"
  },
  {
    "Compound": "N#CC1CC=C(c2cc(Cl)cc3cn[nH]c23)CC1 (stereo not drawn) [Compound P-0105]",
    "IC50": "0.0001 to 10 µM"
  },
  {
    "Compound": "CC(C1CC1)(C1CC1)C(O)c1c(F)c(Cl)cc2cn[nH]c12 (stereo not drawn) [Compound P-0260]",
    "IC50": "0.0001 to 10 µM"
  },
  {
    "Compound": "COC12CCC(C(O)c3cc(Cl)cc4cn[nH]c34)(CC1)CC2 (stereo not drawn) [Compound P-0136]",
    "IC50": "0.0001 to 10 µM"
  },
  {
    "Compound": "CC(C)(C1CCN(S(=O)(=O)c2ccccc2)CC1)C(O)c1cc(Cl)cc2cn[nH]c12 (stereo not drawn) [Compound P-0309]",
    "IC50": "0.0001 to 10 µM"
  },
  {
    "Compound": "O=S1(=O)CC(O)(c2cc(Cl)cc3cn[nH]c23)C1 [Compound P-0189]",
    "IC50": "> 10 µM"
  },
  {
    "Compound": "CCNC(=O)N1CCC(C(C)(C)C(O)c2cc(Cl)cc3cn[nH]c23)CC1 (stereo not drawn) [Compound P-0399]",
    "IC50": "0.0001 to 10 µM"
  },
  {
    "Compound": "CNC(=O)N1CC2CCC(C1)C2CC(O)c1cc(Cl)cc2cn[nH]c12 (stereo not drawn) [Compound P-0127]",
    "IC50": "0.0001 to 10 µM"
  },
  {
    "Compound": "CC(C)(C1CCN(C(=O)Nc2cc(Cl)cc(Cl)c2)CC1)C(O)c1cc(Cl)cc2cn[nH]c12 (stereo not drawn) [Compound P-0395]",
    "IC50": "0.0001 to 10 µM"
  },
  {
    "Compound": "CC(C)(C(O)c1cc(Cl)cc2cn[nH]c12)N1CCCC1 (stereo not drawn) [Compound P-0231]",
    "IC50": "> 10 µM"
  },
  {
    "Compound": "OC(c1cc(Cl)cc2cn[nH]c12)C1CCCC1 (stereo not drawn) [Compound P-0005]",
    "IC50": "0.0001 to 10 µM"
  },
  {
    "Compound": "CC(C)(CN1CCCC1)C(O)c1cc(Cl)cc2cn[nH]c12 (stereo not drawn) [Compound P-0202]",
    "IC50": "> 10 µM"
  },
  {
    "Compound": "NC(=O)N1CCC(C2(C(O)c3cc(Cl)cc4cn[nH]c34)CC2)CC1 (stereo not drawn) [Compound P-0156]",
    "IC50": "0.0001 to 10 µM"
  },
  {
    "Compound": "CC1(C)CN(c2cc(C(F)(F)F)cc3cn[nH]c23)CCN1S(C)(=O)=O [Compound P-0091]",
    "IC50": "0.0001 to 10 µM"
  },
  {
    "Compound": "OC(c1cc(Cl)cc2cn[nH]c12)C1CCCCC1 (stereo not drawn) [Compound P-0002]",
    "IC50": "0.0001 to 10 µM"
  },
  {
    "Compound": "CC(C)(C1CCN(S(C)(=O)=O)CC1)C(O)c1c2c(cc3cn[nH]c13)CC2 (stereo not drawn) [Compound P-0280]",
    "IC50": "0.0001 to 10 µM"
  },
  {
    "Compound": "CCS(=O)(=O)N1CCC(C(F)(F)C(O)c2cc(Cl)cc3cn[nH]c23)CC1 (stereo not drawn) [Compound P-0276]",
    "IC50": "0.0001 to 10 µM"
  },
  {
    "Compound": "CC(C)(C1CCN(C(=O)c2cccnc2)CC1)C(O)c1cc(Cl)cc2cn[nH]c12 (stereo not drawn) [Compound P-0362]",
    "IC50": "0.0001 to 10 µM"
  },
  {
    "Compound": "CC(C)(C1CCN(C(=O)Nc2ccnc(N3CCOCC3)c2)CC1)C(O)c1cc(Cl)cc2cn[nH]c12 (stereo not drawn) [Compound P-0390]",
    "IC50": "0.0001 to 10 µM"
  },
  {
    "Compound": "CC(C)(C(O)c1cc(Cl)cc2cn[nH]c12)[C@H]1C[C@H]2CC[C@@H](C1)N2S(C)(=O)=O (stereo partly drawn) [Compound P-0271]",
    "IC50": "0.0001 to 10 µM"
  },
  {
    "Compound": "CCC(C)(CC)C(O)c1cc(Cl)cc2cn[nH]c12 (stereo not drawn) [Compound P-0255]",
    "IC50": "0.0001 to 10 µM"
  },
  {
    "Compound": "OC1(c2cc(Cl)cc3cn[nH]c23)C2CC3CC(C2)CC1C3 (stereo not drawn) [Compound P-0380]",
    "IC50": "> 10 µM"
  },
  {
    "Compound": "CC(C)(C1CCN(C(N)=O)CC1)C(O)c1cc(Cl)cc2cn[nH]c12 (stereo not drawn) [Compound P-0325]",
    "IC50": "0.0001 to 10 µM"
  },
  {
    "Compound": "OC1(c2c(Cl)c(Cl)cc3cn[nH]c23)CC2(CCC2)C1 [Compound P-0036]",
    "IC50": "0.0001 to 10 µM"
  },
  {
    "Compound": "CC(C)(C1CCN(C(=O)NCc2ccccc2)CC1)C(O)c1cc(Cl)cc2cn[nH]c12 (stereo not drawn) [Compound P-0386]",
    "IC50": "0.0001 to 10 µM"
  }
]
